Target: T1, human DLL4 overexpressed on cells (human, UniProt Q9NR61 27-685)
T1 construct: full length human DLL4 on CHO or HEK293 cells; also called CHO-hDLL4; CHO-hDII4
Assay: FACS titration on HEK293-hDLL4 cells, MCF
Attribute measured: EC50 (read off the curve)

Some solved cases for reference:
1) DLLBII55D12 (VHH) VHH: EVQLVESGGGLVQPGGSLRLSCAASGFTFDDYAIGWFRQAPGKEPEGISCISSSGGITYYADSVKGRFTISRDNAKNTVYLQMNSLKPEDTAVYYCATPGIAACRGIHYTGQGTQVTVSS :: ~7 nM
2) DLLBII56C04 (VHH) VHH: EVQLVESGGGLVQPGGSLRLSCTASGFTFDVYAIGWFRQAPGKEPEGISCISSSGSITYYADSVKGRFTTSRDSAKNTVYLQMNSLKPEDTAVYYCATPGIAACRGIHYWGQGTQVTVSS :: ~6 nM
3) DLLBII57C11 (VHH) VHH: EVQLVESGGGLVQPGGSLRLSCTASGFTFDDYAIGWFRQAPGKEPEGISCISSSGSITYDADSVKGRFTISRDNAKNTVYLQMNSLKPEDTAVYYCATPGIAACRGIHYWGQGTQVTVSS :: ~10 nM

Req: Endpoint output: EC50 (read off the curve) of DLLBII104G01 (VHH, also called 104G1) VHH: EVQLVESGGGLVQAGGSLRLSCAASGFTFDDYAIGWFRQAPGKEREGVSCISSSDGSTYYADSVKGRFTISSDNAKNTVYLQMNSLKPEDTAVYYCATAWCDSSWYRSFVGYWGQGTQVTVSS . Value?
Resp: ~4 nM
